# Test system: HCV 1a replicon
# assay-procedure: HCV GT1a replicon assay in Huh-7 cells
# Assay type: cell-based, Hepatitis C virus
# measurement-setup: Hepatitis C virus; Huh-7 cells transfected with HCV replicon, 72 hours incubation; read-out: EC50 against HCV 1a genotype
quantity-name: pEC50
Units for pEC50: none; it is -log10 of a concentration expressed in mol/L.

compound | test-target | pEC50
COC(=O)N[C@H](C(=O)N1CCC[C@H]1c1ncc(-c2ccc(-c3ncc(-c4ccc5nc([C@@H]6CCCN6C(=O)[C@@H](NC(=O)OC)C(C)C)[nH]c5c4)c4c3CC3(CCCC3)C4)c3c2CCC3)[nH]1)C(C)C | HCV 1a replicon | 9.47
COC(=O)N[C@H](C(=O)N1CCC[C@H]1C1=Nc2cc(-c3ccc(-c4ccc(-c5cnc([C@@H]6CCCN6C(=O)[C@@H](NC(=O)OC)C(C)C)[nH]5)cc4)c4c3CC3(CCCC3)C4)ccc2C2(COC2)N1)C(C)C | HCV 1a replicon | 10.05

Entry COC(=O)N[C@H](C(=O)N1CC2(C[C@H]1c1ncc(-c3ccc(-c4ccc(-c5ccc6nc([C@@H]7CCCN7C(=O)[C@@H](NC(=O)OC)C(C)C)[nH]c(=O)c6c5)c5c4CC4(CCCC4)C5)cc3)[nH]1)OCCO2)C(C)C ; pEC50 = 9.32

Entry COC(=O)N[C@H](C(=O)N1CCC[C@H]1c1ncc(-c2ccc(-c3ccc(-c4ccc5nc([C@@H]6CC7CC7N6C(=O)[C@@H](NC(=O)OC)C(C)C)[nH]c(=O)c5c4)c4c3CC3(CCCC3)C4)c3ccccc23)[nH]1)C(C)C (stereo partly shown) ; pEC50 = 9.14

====

Each entry below carries its recorded EC50.
# System: HCV 1a replicon
# assay-procedure: HCV GT1a replicon assay in Huh-7 cells
# Assay type: cell-based, Hepatitis C virus
# measurement-setup: Hepatitis C virus; Huh-7 cells transfected with HCV replicon, 72 hours incubation; read-out: EC50 against HCV 1a genotype
Please state the figure in nM; there is no need to write the unit.

structure-as-smiles | unit-text | EC50
COC(=O)N[C@H](C(=O)N1CCC[C@H]1C1=Nc2cc(-c3ccc(-c4ccc(-c5cnc([C@@H]6CCCN6C(=O)[C@@H](NC(=O)OC)C(C)C)[nH]5)cc4)c4c3CC3(CCCC3)C4)ccc2C(C)(C)N1)C(C)C | nM | 0.537

Shifting focus to the compound that follows.
Entry COC(=O)N[C@H](C(=O)N1CCC[C@H]1c1ncc(-c2ccc(-c3sc(-c4ccc5nc([C@@H]6CCCN6C(=O)[C@@H](NC(=O)OC)C(C)C)[nH]c(=O)c5c4)c4c3CC3(CCCC3)C4)cc2)[nH]1)C(C)C ; EC50 = 1.1

====

# System: HCV 1a replicon
# assay-procedure: HCV GT1a replicon assay in Huh-7 cells
# Type: cell-based, Hepatitis C virus
# measurement-setup: Hepatitis C virus; Huh-7 cells transfected with HCV replicon, 72 hours incubation; read-out: EC50 against HCV 1a genotype
# Protocol: HCV Replicon System was utilized as an evaluation model in the present disclosure for verifying the effects of the compounds disclosed herein on HCV. An HCV Replicon assay was first described in Science, 1999, 285 (5424), 110-3. […] To determine the potential anti-HCV effects of the test compounds, luciferase assay and antibiotic Neomycin resistance gene were tested according to the method described in Science. 1999 Jul. 2; 285 (5424), 110-3 and J. Virol. 2003 March; 77 (5), 3007-19. […]
quantity-name: pEC50
Units for pEC50: none; it is -log10 of a concentration expressed in mol/L.

# annotated cases, reported pEC50 shown
structure-as-smiles | test-target | pEC50
COC(=O)N[C@H](C(=O)N1CCC[C@H]1c1ncc(-c2ccc(-c3ccc(-c4ccc5nc([C@@H]6CCCN6C(=O)[C@@H](NC(=O)OC)c6ccccc6)[nH]c(=O)c5c4)c4c3CC3(CCCC3)C4)cc2)[nH]1)c1ccccc1 | HCV 1a replicon | 8.68
COC(=O)N[C@H](C(=O)N1C[C@@H](F)C[C@H]1c1nc(-c2ccc(-c3ccc(-c4ccc5nc([C@@H]6C[C@H](F)CN6C(=O)[C@@H](NC(=O)OC)C(C)C)[nH]c(=O)c5c4)c4c3CC3(CCCCC3)C4)cc2)c[nH]1)C(C)C | HCV 1a replicon | 9.36
COC(=O)N[C@H](C(=O)N1CCC[C@H]1c1ncc(C#Cc2ccc(-c3ccc4nc([C@@H]5CCCN5C(=O)[C@@H](NC(=O)OC)C(C)C)[nH]c(=O)c4c3)c3c2CC2(CCCC2)C3)[nH]1)C(C)C | HCV 1a replicon | 9.68

Shifting focus to the compound that follows.
Entry COC(=O)N[C@H](C(=O)N1CCC[C@H]1c1nc2ccc(-c3ccc(-c4ccc5nc([C@@H]6CCCN6C(=O)[C@@H](NC(=O)OC)C(C)C)[nH]c(=O)c5c4)c4c3CC3(CCCC3)C4)cc2c(=O)[nH]1)C(C)C ; pEC50 = 9.96

Origin of the recorded values: patent US9416139B2
